Tested on: SNB-19
assay notes: NCI tumour cell line growth inhibition, 48 h
Activity calls are given as the source filed them. No stated cut-off is given here; in the data, active = GI50 up to about 1.1 µM and inactive = higher.
outcome measure: GI50

structure notation | outcome measure | reported result
Cc1cc(Cl)ccc1NC(=O)C(=O)Cc1ccc([N+](=O)[O-])c([N+](=O)[O-])c1CC(=O)C(=O)Nc1ccc(Cl)cc1C | GI50 | > 100 µM (inactive)
CCOc1snc(C(Cl)(Cl)Cl)c1Cl | GI50 | 6.75 µM (inactive)

Moving on to the next molecule.
Which GI50 value is on record for CC(C)C[C@H](NC(=O)CCc1cccc2ccccc12)B(O)O ?
5.43 µM (inactive)

---

Recorded GI50 values for a group of molecules are listed next.
Test system: HT-29
assay notes: NCI tumour cell line growth inhibition, 48 h
The source made the active and inactive calls. No stated cut-off is given here; in the data, active = GI50 up to about 1.1 µM and inactive = higher.

Field: example entries. Status: answers known.
structure notation | subject of test | GI50
C=C(C)CCN[Si](c1ccccc1)(c1ccccc1)C(C)(C)C | HT-29 | 16.6 µM (inactive)
Cc1cc2c(c(C(=O)NCC(=O)O)c1)Oc1c(cc(C)cc1C(=O)NCC(=O)O)S2 | HT-29 | > 100 µM (inactive)
C[n+]1c2ccccc2n2c3ccccc3c(NCCc3ccccn3)c(C#N)c21 | HT-29 | 2.99 µM (inactive)

Which GI50 value is on record for c1cc2c(cc1C(N1CCNCC1)N1CCNCC1)OCO2 ?
> 100 µM (inactive)

// repeat for COc1cc(OC)cc(N(C)Cc2cnc3nc(N)nc(N)c3c2C)c1 and report
2.65 µM (inactive)

---

Test system: RPMI-8226
assay notes: NCI tumour cell line growth inhibition, 48 h
Calls of active or inactive are those of the source. Cut-off read from the data, not from the text of the source: active = GI50 up to about 1.1 µM and inactive = higher.
Recorded GI50 values for a group of compounds are listed next.

compound | outcome measure | reported result
CC(C)C[C@H](NC(=O)CCc1cccc2ccccc12)B(O)O | GI50 | 0.331 µM (active)
CCCSc1ccc2[nH]c(/N=C/c3ccccc3)cc2c1 | GI50 | 14.8 µM (inactive)
Cc1cc(N(CCC#N)CCC#N)ccc1C(/N=N/c1ccc(C(=O)O)cc1)=N\NC(=O)c1ccccc1 | GI50 | > 100 µM (inactive)

Which GI50 value is on record for CCCN1CN(c2ccccc2)C2(CCN(CCCC(=O)c3ccc(F)cc3)CC2)C1=O ?
12.4 µM (inactive)

// repeat for CC(NNC(=O)c1cc[n+]([BH2-]C#N)cc1)c1cccc(C(F)(F)F)c1 (configuration not stated) and report
65.2 µM (inactive)

// repeat for N#CCCN(CCC#N)c1ccc(/C=C2\SC(=S)NC2=O)cc1Br and report
> 100 µM (inactive)

// repeat for CC(=O)O[C@]12CCC[C@H]1C1(O)C(O)CCC[C@H]12 (some centres not stated) and report
> 100 µM (inactive)

---

Test system: U-251
assay notes: NCI tumour cell line growth inhibition, 48 h
Calls of active or inactive are those of the source. No stated cut-off is given here; in the data, active = GI50 up to about 1.1 µM and inactive = higher.
The categories you may choose from are active, inactive

Previously resolved entries follow.
molecule | class name
O=C(O)Cc1cccc2c1Oc1ccccc1S2 | inactive
O=C(CSc1nc(-c2ccccc2)c(-c2ccccc2)[nH]1)NNC(=S)Nc1ccccc1 | inactive
Cc1ccc(/C=N/Nc2ccc3ccccc3n2)s1 | inactive
CCOC(=O)C1=C(C)N(C2OC(COC(=O)c3ccccc3)C(OC(=O)c3ccccc3)C2OC(=O)c2ccccc2)C(=S)NC1c1ccccc1 (stereo not drawn) | inactive
C#C[C@@]1(O)CCCC2=CC3(CC[C@]21C)SCCS3 | inactive

Tell me the recorded outcome of this test for CCOc1snc(C(Cl)(Cl)Cl)c1Cl .
inactive

// repeat for O=c1[nH]c(C2CCCCC2)nc2c(Cl)cccc12 and report
inactive

// repeat for c1ccc2c(c1)CCC/C2=N\OCC1CO1 (stereo not drawn) and report
inactive

// repeat for c1cc2c(cc1C(N1CCNCC1)N1CCNCC1)OCO2 and report
inactive

// repeat for COc1cc(OCc2ccc3nc(OC)c(OC)nc3c2)cc(OC)c1OC and report
inactive

// repeat for COc1c(OC)c(OC)c(C(=O)/C=C/c2ccccc2)c(OC)c1OC and report
inactive

// repeat for NC(=O)c1csc(C2CCC(CO)O2)n1 (stereo not drawn) and report
inactive

// repeat for CC(C)(C)c1ccc(-n2c3nc(=O)n(-c4ccccc4C(F)(F)F)c(=O)c-3cc3ccccc32)cc1 and report
inactive

---

Test system: RXF 393
assay notes: NCI tumour cell line growth inhibition, 48 h
The source made the active and inactive calls. Rule as the data show it: active = GI50 up to about 1.1 µM and inactive = higher.
The categories you may choose from are active, inactive

compound | class name
O=[N+]([O-])c1ccc(N/N=C/c2ccc(OCCCCCCCCCCCO)cc2)c([N+](=O)[O-])c1 | inactive
Cc1[nH]c2ccccc2c1C1=CC(=O)N(c2ccccc2)C1=O | inactive
O=Cc1cc2c(o1)C(=O)c1ccccc1C2=O | inactive
CC(C)(C)/N=N/C(C)(C)N=C=O | inactive
[O-]/[N+](=N\c1ccccc1CO)c1ccccc1CO | inactive

Tell me the recorded outcome of this test for COC(=O)C1=CN(C2CCCCC2)C2(c3ccccc3)c3ccccc3C(=O)OC(=O)C12 (stereo not given) .
inactive

// repeat for CCCc1c(Cl)nc(Cl)nc1Cl and report
active

// repeat for CCN(CC)CCCC(C)NC(=O)c1cc(-c2nccn2C)nc2ccc(C)cc12 (stereo not given) and report
inactive

// repeat for COc1cc(/C=C/C(=O)C(C)(C)C)cc(OC)c1OC and report
inactive

// repeat for CC1=CC(C)(C)[C@H]2O[C@@]3(O)C[C@]4(C)[C@H]5C[C@@](C(C)C)(O[C@H]4c4ccoc4)O[C@H]4[C@]5(C3)O[C@@]1(O)[C@]24O and report
inactive

---

System: NCI-H460
assay notes: NCI tumour cell line growth inhibition, 48 h
Activity calls are given as the source filed them. Cut-off read from the data, not from the text of the source: active = GI50 up to about 1.1 µM and inactive = higher.
The categories you may choose from are active, inactive

compound | class name
CCCNC(=S)NNC(=O)CSc1nc(-c2ccccc2)c(-c2ccccc2)[nH]1 | inactive
Cc1ccc(NC(=O)CC(=O)n2nc(-c3ccccc3)c(/N=N/c3ccccc3Cl)c2-c2ccccc2)cc1 | inactive
CC(=O)O[C@@]12CO[C@@H]1CC(O)[C@@]1(C)C(=O)[C@H](O)C3=C(C)C(O)C[C@@](O)(C(OC(=O)c4ccccc4)C12)C3(C)C (some centres not stated) | active

Tell me the recorded outcome of this test for CN(C)c1ccc(C(=NNC(=O)c2cc3ccccc3[nH]2)c2ccc(N(C)C)cc2)cc1 .
active

// repeat for CCCCN(CC)C(=O)C(=O)Cc1nc2ccc(C(=O)c3ccccc3)cc2nc1O and report
inactive

---

Test system: HOP-18
assay notes: NCI tumour cell line growth inhibition, 48 h
Activity calls are given as the source filed them. Rule as the data show it: active = GI50 up to about 1.1 µM and inactive = higher.
The categories you may choose from are class 1 = active, class 0 = inactive

Previously resolved entries follow.
compound | subject of test | class name
CC1CC(=O)C(C(O)CC2CC(=O)N(c3ccccc3)C(=O)C2)C(C)C1 (configuration not stated) | HOP-18 | class 0
Cc1ccc(-n2c(=S)[nH]c3ccc(Br)cc3c2=O)cc1 | HOP-18 | class 0
C=CC(=O)NCNC(=O)C=C | HOP-18 | class 0
O=C1CCC(=O)C1=NNc1cc(Cl)cc(Cl)c1 | HOP-18 | class 0
COC(CN1C=C(Sc2ccccc2)CC1)OC | HOP-18 | class 0
CCOC(=O)C1=C(C)N(C2OC(COC(=O)c3ccccc3)C(OC(=O)c3ccccc3)C2OC(=O)c2ccccc2)C(=S)NC1c1ccccc1 (configuration not stated) | HOP-18 | class 0
C=C1CC(C/C=C(\C)CC2CC(=C)C(=O)O2)OC1=O (configuration not stated) | HOP-18 | class 0
O=c1[nH]c(C2CCCCC2)nc2c(Cl)cccc12 | HOP-18 | class 0
NC(=O)NNC(=O)NC12CC3CC(CC(C3)C1)C2 | HOP-18 | class 0
COC1CC(OC)C(O)C(CO)O1 (configuration not stated) | HOP-18 | class 0

Proceed to the following item.
Tell me the recorded outcome of this test for CC1CC[P+](c2ccccc2)(c2ccccc2)CC1 .
class 0

---

Recorded GI50 values for a group of molecules are listed next.
Tested on: UACC-257
assay notes: NCI tumour cell line growth inhibition, 48 h
Activity calls are given as the source filed them. No stated cut-off is given here; in the data, active = GI50 up to about 1.1 µM and inactive = higher.

molecule | reported result
CC(=O)O[C@]12CCC[C@H]1C1(O)C(O)CCC[C@H]12 (some centres not stated) | > 100 µM (inactive)

Which GI50 value is on record for O=C(Cc1c(C(=O)Nc2ccccc2)sc(C(=O)Nc2ccccc2)c1CC(=O)Nc1ccccc1)Nc1ccccc1 ?
> 100 µM (inactive)

---

Test system: A549
assay notes: NCI tumour cell line growth inhibition, 48 h
Calls of active or inactive are those of the source. Cut-off read from the data, not from the text of the source: active = GI50 up to about 1.1 µM and inactive = higher.
outcome measure: GI50

// lookup GI50 | system=A549 | key= CC(=O)O[C@]12CCCCCC1C1(O)C(O)CCCC[C@H]12 (stereo partly drawn)
> 100 µM (inactive)

// repeat for COC1=CC23CCCN2CCc2cc4c(cc2C3C1O)OCO4 (stereo not drawn) and report
36.4 µM (inactive)

// repeat for CC(C)c1ccc2c(c1)/C(=C1/Nc3ccccc3C1=O)C(=O)N2 and report
15.3 µM (inactive)
